self-splicing fitness (ln) for assorted sequences
Test: self-splicing fitness, log relative to wild type (ln ratio); higher = more splicing; Tetrahymena group I intron in knt gene, E. coli kanamycin selection, DiMSum; sequences stand for … in CUCUCU…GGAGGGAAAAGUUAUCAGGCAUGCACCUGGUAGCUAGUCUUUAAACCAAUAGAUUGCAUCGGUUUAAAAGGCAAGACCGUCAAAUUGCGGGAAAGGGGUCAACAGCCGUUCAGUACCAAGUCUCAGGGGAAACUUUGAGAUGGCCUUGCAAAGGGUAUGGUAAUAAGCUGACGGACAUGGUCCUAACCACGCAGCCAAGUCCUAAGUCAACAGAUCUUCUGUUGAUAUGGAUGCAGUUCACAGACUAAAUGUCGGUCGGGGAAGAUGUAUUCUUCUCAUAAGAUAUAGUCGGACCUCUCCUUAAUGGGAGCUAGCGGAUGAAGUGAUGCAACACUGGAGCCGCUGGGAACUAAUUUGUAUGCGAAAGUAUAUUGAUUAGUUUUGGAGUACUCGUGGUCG;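 note: selection with 25 µg/mL kanamycin versus none on LB agar overnight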
Conditions: 30 °C
Endpoint Name: self-splicing fitness (ln)

>>> result("AACCAGCAAUAUUACGUCUG")
-3.9
>>> result("GAGGAGCAAUAUUACGGACA")
-3.15
>>> result("CGCCAGCAAUAUUACGCAAU")
-4.2
>>> result("CCUCAGCAAUAUUACGCAGU")
-3.09
>>> result("CGCAAGCAAUAUUACGGAUG")
-1.2
>>> result("AGGAAGCAAUAUUACGGUGA")
-2.15
>>> result("CAGCAGCAAUAUUACGUGGG")
-3.53
>>> result("GUUGAGCAAUAUUACGUGUG")
-3.65
